Values compiled from PubChem BioAssay AID1986.

METHOD DESCRIPTION: inhibitors of HIV fusion peptide binding, primary screen, biochemical, uHTS, fluorescence dequenching (AID 1986)
MEASUREMENT CONDITIONS: cell-free peptide binding, 30 min, at 20 µM
The campaign covered roughly 290,000 compounds. About 890 (0.31%) were called active. No stated cut-off is given here; in the data, active means inhibition mostly above about 52% (no sharp cut-off); inactive means mostly below about 76%. Many of the other results were omitted from the sample, so actives are more common in it than they were.
Answer with one of the outcomes active, inactive

Here are 4 molecules together with their reported answers.
In [3]: df
Out[3]:
                                   molecule     group
0  N#C/C(=N\Nc1cccc([N+](=O)[O-])c1)C(=O)c1ccc(Br)cc1    active
1  O=C(Nc1ccccc1C(=O)O)/C(=C/c1ccc([N+](=O)[O-])cc1)NC(=O)c1ccc(Br)o1  inactive
2  Cc1ccc(C(=O)NC(C(=O)Nc2cccc(S(N)(=O)=O)c2)C(C)C)cc1 (stereo not given)  inactive
3  CCOc1ccc(C2C(C(=O)c3ccc(C)o3)=C(O)C(=O)N2Cc2cccnc2)cc1 (stereo not given)  inactive

## Task Query: recorded result category for "CC(C)=Cc1oc2ccc([N+](=O)[O-])cc2c1N1CCOCC1" in this test
## Result inactive

## Task Query: recorded result category for "Cc1ccc(C)c(NC(=O)CSc2nnc(C3CCCCC3)o2)c1" in this test
## Result inactive

## Task Query: recorded result category for "Cc1cc(C)c(C)c(S(=O)(=O)N2CCNCC2)c1C" in this test
## Result inactive

----------
METHOD DESCRIPTION: inhibitors of HIV fusion peptide binding, primary screen, biochemical, uHTS, fluorescence dequenching (AID 1986)
MEASUREMENT CONDITIONS: cell-free peptide binding, 30 min, at 20 µM, stronger effect = higher value
Screen size: about 290,000 compounds; about 890 (0.31%) were called active. The sample as a whole holds a higher share of actives than the screen did.
OUTCOME MEASURE: inhibition (%)
All answers are understood in %, so give the number only.

In [3]: df
Out[3]:
                                   molecule  outcome_measure  recorded_number
0  CCOC(=O)c1c(-c2ccc(OC)cc2)csc1/N=C/C1=C(O)CCCC1=O       inhibition             71.6
1  N#CC1=C(N)C(C#N)(C#N)C2(CCC3(CC2)OCCO3)C2CC3(CC=C12)OCCO3 (stereo not drawn)       inhibition              5.6
2  Cc1ccc(-c2c(C(=O)Nc3ccccc3C)c(C)[nH]c(=S)c2C#N)o1       inhibition             33.1
3  CCOC(=O)c1c(/N=C/C2=C(O)CCCC2=O)sc(C)c1C       inhibition             52.3
4  CCCC(C(=O)Nc1ccc2c(C)cc(=O)oc2c1)c1ccccc1 (stereo not drawn)       inhibition              0.5

For this molecule ( CSCC(C)N1CCC(Oc2cccc(C(=O)NCc3ccccn3)c2)CC1 (stereo not drawn) ), measured inhibition is 17

For this molecule ( "COc1ccc(CC(=O)N(C)CC(=O)Nc2ccccc2SC)cc1" ), measured inhibition is 3.4

For this molecule ( CC1CCC2(CC1)Nc1ccccc1C(=O)N2c1ccccc1 (stereo not drawn) ), measured inhibition is -0.5
